- System Under Test: P2X7 receptor (Mus musculus)
- Construct: mP2X7 (IC50; nM); other: mP2X7; HEK-293 cells stably transfected with P2X7 receptor, Bz-ATP at EC80, Fluo-8 NW; potency
- Assay Info: Screen Quest Fluo-8 No Wash Calcium Assay (Bz-ATP evoked Ca2+ influx, FLIPR)
- Format: cell-based
- Run Conditions: mP2X7; HEK-293 cells stably transfected with P2X7 receptor, Bz-ATP at EC80, Fluo-8 NW; potency ranges A-D
Entries and their measured IC50 follow.

Below: 4 compounds and their reported IC50.
CC(c1c(F)cccc1Cl)c1noc(=O)n1Cc1ccc(F)cc1 (centres unmarked) = > 10000 nM
O=c1onc(CCc2c(F)cccc2Cl)n1CC1CCC(F)(F)CC1 = 200 to 1000 nM
O=c1onc(Cc2c(F)cccc2Cl)n1CCN1CCCCC1 = 1000 to 10000 nM
O=c1onc(CN2CCCC(F)(F)C2)n1Cc1c(F)cccc1Cl = 200 to 1000 nM

Qu. I have this compound here, "O=c1onc(Cc2ccccc2F)n1CC1CCCCC1" , and I need its recorded IC50.
Ans. 200 to 1000 nM

* * *

- System Under Test: P2X7 receptor (Rattus norvegicus, UniProt Q64663)
- Construct: rP2X7 (IC50; nM); other: rP2X7; HEK-293 cells stably transfected with P2X7 receptor, Bz-ATP at EC80, Fluo-8 NW; potency
- Sequence (Q64663 1-595): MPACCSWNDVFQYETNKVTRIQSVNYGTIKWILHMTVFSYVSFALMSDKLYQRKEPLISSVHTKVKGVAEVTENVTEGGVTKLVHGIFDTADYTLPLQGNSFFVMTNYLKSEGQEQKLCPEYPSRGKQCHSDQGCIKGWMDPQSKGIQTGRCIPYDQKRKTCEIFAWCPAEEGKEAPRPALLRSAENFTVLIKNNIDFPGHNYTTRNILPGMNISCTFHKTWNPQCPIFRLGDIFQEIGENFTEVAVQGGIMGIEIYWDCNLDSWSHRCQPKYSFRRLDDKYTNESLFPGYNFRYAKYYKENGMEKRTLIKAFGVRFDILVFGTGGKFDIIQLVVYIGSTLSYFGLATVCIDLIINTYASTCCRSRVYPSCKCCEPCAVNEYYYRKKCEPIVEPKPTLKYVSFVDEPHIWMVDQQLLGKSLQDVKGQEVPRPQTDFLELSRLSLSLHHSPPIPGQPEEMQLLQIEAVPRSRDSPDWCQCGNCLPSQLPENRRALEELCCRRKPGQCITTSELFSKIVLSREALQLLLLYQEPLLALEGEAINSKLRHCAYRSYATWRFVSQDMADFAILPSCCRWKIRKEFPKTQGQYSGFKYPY
- Assay Info: Screen Quest Fluo-8 No Wash Calcium Assay (Bz-ATP evoked Ca2+ influx, FLIPR)
- Assay type: cell-based
- Run Conditions: rP2X7; HEK-293 cells stably transfected with P2X7 receptor, Bz-ATP at EC80, Fluo-8 NW; potency ranges A-D
Reported Metric: IC50

O=c1onc(CN2CCOc3ccccc32)n1CC1CCC(F)(F)CC1 = < 200 nM
O=c1onc(CN2CCCC(F)(F)C2)n1Cc1c(F)cccc1Cl = 200 to 1000 nM
O=c1onc(CN2CCc3ccccc3C2)n1Cc1c(F)cccc1Cl = 200 to 1000 nM
CC(c1ccc(F)cc1)n1c(CC2CCCCC2)noc1=O (centres unmarked) = 1000 to 10000 nM

Qu. I have this molecule here, "O=c1onc(Cc2ccc(F)cc2)n1Cc1cccc(C(F)(F)F)c1Cl" , and I need its recorded IC50.
Ans. > 10000 nM

* * *

- System Under Test: P2X7 receptor (Mus musculus, UniProt Q9Z1M0)
- Construct: mP2X7 (IC50; nM); other: mP2X7; HEK-293 cells stably transfected with P2X7 receptor, Bz-ATP at EC80, Fluo-8 NW; potency
- Sequence (Q9Z1M0 1-595): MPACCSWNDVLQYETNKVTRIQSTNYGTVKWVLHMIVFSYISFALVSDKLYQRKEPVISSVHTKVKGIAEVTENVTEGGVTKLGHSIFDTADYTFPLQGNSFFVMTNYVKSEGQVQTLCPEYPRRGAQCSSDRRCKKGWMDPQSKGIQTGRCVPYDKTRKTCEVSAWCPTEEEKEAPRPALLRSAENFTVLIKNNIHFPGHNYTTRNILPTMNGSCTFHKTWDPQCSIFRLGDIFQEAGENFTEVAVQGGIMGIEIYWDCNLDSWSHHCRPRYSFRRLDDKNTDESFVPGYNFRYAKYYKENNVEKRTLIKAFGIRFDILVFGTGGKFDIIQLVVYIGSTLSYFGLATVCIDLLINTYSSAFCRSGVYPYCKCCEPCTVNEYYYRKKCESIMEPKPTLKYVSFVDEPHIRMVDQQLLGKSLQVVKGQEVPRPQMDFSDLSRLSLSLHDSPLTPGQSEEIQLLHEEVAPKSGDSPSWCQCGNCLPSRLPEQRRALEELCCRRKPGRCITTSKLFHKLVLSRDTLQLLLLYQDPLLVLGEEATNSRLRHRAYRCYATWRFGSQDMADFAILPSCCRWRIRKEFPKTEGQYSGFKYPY
- Assay Info: Screen Quest Fluo-8 No Wash Calcium Assay (Bz-ATP evoked Ca2+ influx, FLIPR)
- Format: cell-based
- Run Conditions: mP2X7; HEK-293 cells stably transfected with P2X7 receptor, Bz-ATP at EC80, Fluo-8 NW; potency ranges A-D
Reported Metric: IC50

Below: 5 compounds and their reported IC50.
O=c1onc(CC2CCC(F)(F)CC2)n1Cc1ccc(C(F)(F)F)cc1 [Example 166] = 1000 to 10000 nM
CC(c1c(F)cccc1Cl)c1noc(=O)n1CC1CCCCC1 (stereo not shown) [Example 122] = > 10000 nM
O=c1onc(Cc2c(F)cccc2Cl)n1Cc1ccc(F)cc1 [Example 55] = 200 to 1000 nM
CCCn1c(Cc2c(F)cccc2Cl)noc1=O [Example 176] = > 10000 nM
COc1ccc(Cc2noc(=O)n2CC2CCC(F)(F)CC2)cc1 [Example 154] = 1000 to 10000 nM

Qu. I have this compound here, O=c1onc(Cc2c(F)cccc2Cl)n1CC1CCC(C(F)(F)F)CC1 (stereo not shown) [Example 184] , and I need its recorded IC50.
Ans. < 200 nM

Qu. Next: O=c1onc(Cc2c(F)cccc2Cl)n1CC12CCC(CC1)C2 [Example 91]
Ans. 200 to 1000 nM

Qu. Next: COc1ccc(Cn2c(Cc3c(F)cccc3Cl)noc2=O)cc1 [Example 68]
Ans. > 10000 nM

Qu. Next: Cc1cc(F)ccc1Cn1c(Cc2c(F)cccc2Cl)noc1=O [Example 25]
Ans. 200 to 1000 nM

Qu. Next: CCOCn1c(Cc2c(F)cccc2Cl)noc1=O [Example 101]
Ans. > 10000 nM

* * *

- System Under Test: P2X7 receptor (Rattus norvegicus, UniProt Q64663)
- Construct: rP2X7 (IC50; nM); other: rP2X7; HEK-293 cells stably transfected with P2X7 receptor, Bz-ATP at EC80, Fluo-8 NW; potency
- Assay Info: Screen Quest Fluo-8 No Wash Calcium Assay (Bz-ATP evoked Ca2+ influx, FLIPR)
- Type: cell-based
- Run Conditions: rP2X7; HEK-293 cells stably transfected with P2X7 receptor, Bz-ATP at EC80, Fluo-8 NW; potency ranges A-D
Reported Metric: IC50

Below: 3 molecules and their reported IC50.
O=c1onc(Cc2ccccc2F)n1CC1CCC(F)(F)CC1 [Example 150] = < 200 nM
CC1CCCCC1Cn1c(Cc2c(F)cccc2Cl)noc1=O (centres unmarked) [Example 87] = < 200 nM
COCn1c(Cc2c(F)cccc2Cl)noc1=O [Example 100] = > 10000 nM

Qu. I have this molecule here, O=c1snc(Cc2c(F)cccc2Cl)n1Cc1ccc(F)cc1 [Example 139] , and I need its recorded IC50.
Ans. 200 to 1000 nM

Qu. Next: O=c1onc(Cc2c(F)cccc2Cl)n1Cc1ncc(F)cn1 [Example 45]
Ans. > 10000 nM

Qu. Next: O=c1onc(Cc2ccc(F)cc2Cl)n1CC1CCC(F)(F)CC1 [Example 162]
Ans. > 10000 nM

Qu. Next: O=c1onc(Cc2c(F)cccc2Cl)n1Cc1ccccn1 [Example 62]
Ans. > 10000 nM

Qu. Next: CC1CC(F)(F)CCN1Cc1noc(=O)n1Cc1ccc(F)cc1 (centres unmarked) [Example 227]
Ans. 200 to 1000 nM

Qu. Next: O=c1onc(Cc2c(F)cccc2Cl)n1Cc1ccc(C(F)(F)F)nc1 [Example 37]
Ans. > 10000 nM

Qu. Next: O=c1onc(CN2CCC(F)(F)CC2)n1CC1CCC(F)(F)CC1 [Example 223]
Ans. > 10000 nM

* * *

- System Under Test: P2X7 receptor (Mus musculus, UniProt Q9Z1M0)
- Construct: mP2X7 (IC50; nM); other: mP2X7; HEK-293 cells stably transfected with P2X7 receptor, Bz-ATP at EC80, Fluo-8 NW; potency
- Sequence (Q9Z1M0 1-595): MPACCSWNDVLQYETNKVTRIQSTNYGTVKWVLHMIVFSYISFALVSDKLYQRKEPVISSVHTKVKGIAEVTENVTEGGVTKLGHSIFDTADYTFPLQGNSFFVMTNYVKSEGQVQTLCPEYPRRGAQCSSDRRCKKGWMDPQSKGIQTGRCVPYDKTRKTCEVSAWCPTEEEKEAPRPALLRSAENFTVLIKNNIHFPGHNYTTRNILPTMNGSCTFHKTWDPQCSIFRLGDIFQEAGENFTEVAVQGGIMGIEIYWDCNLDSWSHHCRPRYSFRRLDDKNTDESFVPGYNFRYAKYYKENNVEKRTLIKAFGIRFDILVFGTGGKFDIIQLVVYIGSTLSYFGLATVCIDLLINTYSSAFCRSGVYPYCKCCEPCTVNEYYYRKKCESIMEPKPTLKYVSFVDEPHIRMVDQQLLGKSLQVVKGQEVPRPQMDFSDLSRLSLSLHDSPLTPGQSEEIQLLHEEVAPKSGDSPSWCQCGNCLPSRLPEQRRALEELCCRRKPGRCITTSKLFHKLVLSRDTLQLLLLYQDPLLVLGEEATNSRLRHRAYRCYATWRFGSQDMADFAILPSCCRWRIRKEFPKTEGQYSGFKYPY
- Assay Info: Screen Quest Fluo-8 No Wash Calcium Assay (Bz-ATP evoked Ca2+ influx, FLIPR)
- Assay type: cell-based
- Run Conditions: mP2X7; HEK-293 cells stably transfected with P2X7 receptor, Bz-ATP at EC80, Fluo-8 NW; potency ranges A-D
Reported Metric: IC50

O=c1onc(Cc2cccc(Cl)c2Cl)n1Cc1ccc(F)cc1 [Example 71] = 1000 to 10000 nM
Cc1cc(Cn2c(CC3CCC(F)(F)CC3)noc2=O)no1 [Example 169] = > 10000 nM
O=c1onc(Cc2ccccc2C(F)(F)F)n1CC1CCCCC1 [Example 116] = 1000 to 10000 nM
CC(c1ccccc1)n1c(CC2CCC(F)(F)CC2)noc1=O (centres unmarked) [Example 188] = 1000 to 10000 nM
Cc1noc(C)c1Cc1noc(=O)n1Cc1ccc(F)cc1 [Example 208] = > 10000 nM

Qu. I have this molecule here, O=c1onc(CN2CCC(F)(F)CC2)n1CC1CCC(F)(F)CC1 [Example 223] , and I need its recorded IC50.
Ans. > 10000 nM

Qu. Next: O=c1onc(Cc2c(F)cccc2Cl)n1CC1CCC(F)(F)C1 (single isomer, unassigned) [Example 149]
Ans. 200 to 1000 nM
